Exercise: state measured viability, T/C for each of the molecules provided.
Tested on: K86415-001-R-J1-PDC complex spheroids, viability;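 also: spheroids exposed to agents for seven days before readout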
Experiment: Anticancer human tumor K86415-001-R-J1-PDC patient-derived lung adenocarcinoma cell line growth inhibition [RAS]
Settings: second compound 10 µM; first compound 10 µM; active compounds read low

Reported viability, T/C for K86415-001-R-J1-PDC complex spheroids, viability, given CCC(CC)c1cc(NC2CCC(N)C2)n2nccc2n1 (stereo not drawn) + C#Cc1c(F)ccc2cc(O)cc(-c3ncc4c(N5CC6CCC(C5)N6)nc(OCC56CCCN5CC(F)C6)nc4c3F)c12 ?
2.37%

Checklist item: viability, T/C tested on K86415-001-R-J1-PDC complex spheroids, viability, entry NC1c2ccccc2OC12CCN(c1cnc3c(N4CCCc5ncccc54)n[nH]c3n1)CC2 (stereo not drawn) + C#Cc1c(F)ccc2cc(O)cc(-c3ncc4c(N5CC6CCC(C5)N6)nc(OCC56CCCN5CC(F)C6)nc4c3F)c12 , value?;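 also: spheroids exposed to agents for seven days before readout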
4.4%

Please state recorded viability, T/C (tested on K86415-001-R-J1-PDC complex spheroids, viability) of CC(Nc1ccc2c(c1)OCCn1cc(N3C(=O)OCC3C(F)F)nc1-2)C(N)=O (stereo not drawn) + C#Cc1c(F)ccc2cc(O)cc(-c3ncc4c(N5CC6CCC(C5)N6)nc(OCC56CCCN5CC(F)C6)nc4c3F)c12;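 also: spheroids exposed to agents for seven days before readout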
1.56%

Entry CC1(O)CCCC1n1c(=O)c(C(F)F)cc2cnc(NC3CCN(S(C)(=O)=O)CC3)nc21 (stereo not drawn) + C#Cc1c(F)ccc2cc(O)cc(-c3ncc4c(N5CC6CCC(C5)N6)nc(OCC56CCCN5CC(F)C6)nc4c3F)c12 , system K86415-001-R-J1-PDC complex spheroids, viability: what viability, T/C was measured?;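 also: spheroids exposed to agents for seven days before readout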
2.97%

// map CC(=O)OC12COC1CC(O)C1(C)C(=O)C(O)C3=C(C)C(OC(=O)C(O)C(NC(=O)OC(C)(C)C)c4ccccc4)CC(O)(C(OC(=O)c4ccccc4)C21)C3(C)C (stereo not drawn) + C#Cc1c(F)ccc2cc(O)cc(-c3ncc4c(N5CC6CCC(C5)N6)nc(OCC56CCCN5CC(F)C6)nc4c3F)c12 to recorded viability, T/C (system: K86415-001-R-J1-PDC complex spheroids, viability);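 also: spheroids exposed to agents for seven days before readout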
15.3%

Which measured viability, T/C belongs to Cc1nc(N2CCC3(CC2)COC(C)C3N)c(CO)nc1Sc1ccnc(N)c1Cl (stereo not drawn) + C#Cc1c(F)ccc2cc(O)cc(-c3ncc4c(N5CC6CCC(C5)N6)nc(OCC56CCCN5CC(F)C6)nc4c3F)c12 , tested on K86415-001-R-J1-PDC complex spheroids, viability?;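 also: spheroids exposed to agents for seven days before readout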
3.85%

K86415-001-R-J1-PDC complex spheroids, viability / viability, T/C / C[C@@H](NC(=O)c1ncnc(N)c1Cl)c1ncc(C(=O)Nc2cc(C(F)(F)F)c(Cl)cn2)s1 + C#Cc1c(F)ccc2cc(O)cc(-c3ncc4c(N5CC6CCC(C5)N6)nc(OCC56CCCN5CC(F)C6)nc4c3F)c12 : value?;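 also: spheroids exposed to agents for seven days before readout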
15.3%

Observed viability, T/C on K86415-001-R-J1-PDC complex spheroids, viability for CC(C)NCC(C(=O)N1CCN(c2ncnc3c2C(C)CC3O)CC1)c1ccc(Cl)cc1 (stereo not drawn) + C#Cc1c(F)ccc2cc(O)cc(-c3ncc4c(N5CC6CCC(C5)N6)nc(OCC56CCCN5CC(F)C6)nc4c3F)c12 , please.
5.88%
